Recorded IC50, one value per entry.
system: STAT6 (Homo sapiens, UniProt P42226)
Sequence (P42226 whole entry, species assumed): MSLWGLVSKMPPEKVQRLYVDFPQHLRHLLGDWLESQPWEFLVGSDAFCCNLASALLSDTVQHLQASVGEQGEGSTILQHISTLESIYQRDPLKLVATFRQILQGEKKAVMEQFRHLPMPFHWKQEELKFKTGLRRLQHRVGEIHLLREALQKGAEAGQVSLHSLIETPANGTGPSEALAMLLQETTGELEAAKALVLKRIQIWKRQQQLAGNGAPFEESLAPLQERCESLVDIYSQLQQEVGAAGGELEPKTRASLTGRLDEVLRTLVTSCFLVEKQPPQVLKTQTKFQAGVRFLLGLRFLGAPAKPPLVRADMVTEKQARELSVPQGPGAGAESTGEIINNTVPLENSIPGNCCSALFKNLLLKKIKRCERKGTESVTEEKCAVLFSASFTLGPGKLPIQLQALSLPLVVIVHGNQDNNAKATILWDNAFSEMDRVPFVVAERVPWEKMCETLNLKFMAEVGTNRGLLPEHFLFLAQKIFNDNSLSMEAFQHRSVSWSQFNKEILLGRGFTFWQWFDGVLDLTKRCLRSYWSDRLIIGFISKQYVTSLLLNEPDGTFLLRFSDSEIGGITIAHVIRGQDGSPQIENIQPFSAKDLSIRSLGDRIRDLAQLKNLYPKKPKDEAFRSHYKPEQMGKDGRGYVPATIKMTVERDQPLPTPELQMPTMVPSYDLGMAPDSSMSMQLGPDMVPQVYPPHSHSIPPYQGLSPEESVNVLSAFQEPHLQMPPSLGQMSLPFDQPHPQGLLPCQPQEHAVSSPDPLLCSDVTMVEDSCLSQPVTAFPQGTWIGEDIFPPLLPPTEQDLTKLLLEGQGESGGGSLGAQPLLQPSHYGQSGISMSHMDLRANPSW
experimentalDetails: Inhibition of STAT6 binding (duplex formation)
measurementContext: Table 1; inhibitors of STAT6 binding (duplex formation)

{"columns": ["molecule", "IC50"],
 "data": [
  ["CC(C)C(=O)N[C@@H]1C[C@@H](C(=O)N(Cc2ccccc2)c2ccc(C(N)=O)cc2)N(C(=O)[C@@H](NC(=O)/C=C/c2ccc(C(O)C(=O)O)cc2)C(C)(C)C)C1 (stereo partly shown) [drawing 46: H, —NHCOCH(CH3)2, 4-CONH2, H]", "1 to 50 µM"],
  ["CC(C)(C)[C@H](NC(=O)/C=C/c1ccc(C(O)C(=O)O)cc1)C(=O)N1CCC[C@H]1C(=O)N(Cc1ccccc1)c1ccc(C(=O)Nc2ccccc2)cc1 (stereo partly shown) [drawing 46: H, H, 4-CONHPh, H]", "> 100 µM"],
  ["CC(=O)N[C@H]1C[C@@H](C(=O)N(Cc2ccccc2)c2ccc(C(N)=O)cc2)N(C(=O)[C@@H](NC(=O)/C=C/c2ccc(C(O)C(=O)O)cc2)C(C)(C)C)C1 (stereo partly shown) [drawing 46: —NHAC, H, 4-CONH2, H]", "1 to 50 µM"],
  ["CC(C)(C)[C@H](NC(=O)/C=C/c1ccc(C(O)C(=O)O)cc1)C(=O)N1C[C@H](N(Cc2ccccc2)Cc2ccccc2)C[C@H]1C(=O)N(Cc1ccccc1)c1ccc(C(N)=O)cc1 (stereo partly shown) [drawing 46: H, —N(Bn)2,4-CONH2, H]", "> 100 µM"]
]}
